System: Escherichia coli
Assay: Expected efficacy of antibiotic agents
Details: expected efficacy against Escherichia coli
reported_endpoint: Efficacy

Solved cases (5 shown):
{"compound": "CN[C@H](CC(C)C)C(=O)N[C@H]1C(=O)N[C@@H](CC(N)=O)C(=O)N[C@H]2C(=O)N[C@H]3C(=O)N[C@H](C(=O)N[C@H](C(=O)O)c4cc(O)cc(O)c4-c4cc3ccc4O)[C@H](O)c3ccc(c(Cl)c3)Oc3cc2cc(c3O[C@@H]2O[C@H](CO)[C@@H](O)[C@H](O)[C@H]2O[C@H]2C[C@](C)(N)[C@H](O)[C@H](C)O2)Oc2ccc(cc2Cl)[C@H]1O", "Efficacy": "no"}
{"compound": "CC[C@H]1OC(=O)[C@H](C)[C@@H](O[C@H]2C[C@@](C)(OC)[C@@H](O)[C@H](C)O2)[C@H](C)[C@@H](O[C@@H]2O[C@H](C)C[C@H](N(C)C)[C@H]2O)[C@](C)(O)C[C@@H](C)CN(C)[C@H](C)[C@@H](O)[C@]1(C)O", "Efficacy": "no"}
{"compound": "CO/N=C(\\C(=O)N[C@@H]1C(=O)N2C(C(=O)O)=C(CSc3nc(=O)c(=O)[nH]n3C)CS[C@H]12)c1csc(N)n1", "Efficacy": "yes"}
{"compound": "C/C(=C\\C(=O)OCCCCCCCCC(=O)O)C[C@@H]1OC[C@H](C[C@@H]2O[C@H]2[C@@H](C)[C@H](C)O)[C@@H](O)[C@H]1O", "Efficacy": "no"}
{"compound": "O=C(O)c1cn(C2CC2)c2cc(N3CCNCC3)c(F)cc2c1=O", "Efficacy": "yes"}

Efficacy reading for NC[C@H]1O[C@H](O[C@H]2[C@H](O)[C@@H](O[C@H]3O[C@H](CO)[C@@H](O)[C@H](N)[C@H]3O)[C@H](N)C[C@@H]2N)[C@H](N)C[C@@H]1O : yes
